test: Pharmacokinetic study for mouse (single intravenous or gavage administration); type: in vivo, mice; conditions: plasma, oral gavage, 3 mg/Kg
Measurement Label: Cmax (µM)
Supply the numeric figure in µM, leaving out any unit text.

Query: What value of measured Cmax is listed for C[C@H]1Cc2noc(-c3ncccn3)c2CN1C(=O)Nc1ccc(F)c(C#N)c1 ?
Response: 3.4
